Molecular target: Myt1 kinase (CDK1 Thr14 phosphorylation in DAOY medulloblastoma cells) (Homo sapiens)
Construct: pCDK1 Thr14 AlphaLISA read-out
Sequence (Q99640 1-499): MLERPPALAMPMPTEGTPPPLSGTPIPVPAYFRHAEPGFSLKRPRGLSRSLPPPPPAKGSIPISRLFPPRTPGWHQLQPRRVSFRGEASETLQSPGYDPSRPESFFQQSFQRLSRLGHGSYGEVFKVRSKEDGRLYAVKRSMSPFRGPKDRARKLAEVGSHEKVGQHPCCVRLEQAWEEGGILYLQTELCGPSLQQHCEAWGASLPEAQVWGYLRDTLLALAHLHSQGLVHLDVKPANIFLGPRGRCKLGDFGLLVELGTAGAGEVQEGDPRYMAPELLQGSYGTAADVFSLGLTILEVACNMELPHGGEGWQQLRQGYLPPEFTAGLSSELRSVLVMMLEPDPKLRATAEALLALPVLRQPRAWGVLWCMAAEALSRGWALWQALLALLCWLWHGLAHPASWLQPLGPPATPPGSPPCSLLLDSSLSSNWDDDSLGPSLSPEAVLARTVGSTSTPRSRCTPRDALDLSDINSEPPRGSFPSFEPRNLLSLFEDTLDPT
Test: AlphaLISA assay, Myt1 kinase target engagement (phospho-CDK1 Thr14) in DAOY cells
Format: cell-based
Settings: 4 h treatment, read-out: CDK1 Thr14 Phosphorylation EC50
ASSAY_METRIC: EC50

Here's what some known entries look like.
C=CCn1c(=O)c2cnc(Nc3ccc4c(cnn4C)c3)nc2n1-c1cccc(O[C@H]2CCN(C)C2)n1 :: 500 to 1000 nM
C=CCn1c(=O)c2cnc(Nc3ccc4ncccc4c3)nc2n1-c1cccc(OC2CCNCC2)n1 :: 500 to 1000 nM
C=CCn1c(=O)c2cnc(Nc3ccc(Cl)cc3)nc2n1-c1cccc(O[C@H]2CCNC2)n1 :: 200 to 500 nM
C=CCn1c(=O)c2cnc(Nc3ccc(N4CCSCC4)cc3)nc2n1-c1cccc(OC2CCN(C)CC2)n1 :: 200 to 500 nM
C=CCn1c(=O)c2cnc(Nc3ccc4c(cnn4C)c3)nc2n1-c1cccc(O[C@H]2CCCNC2)n1 :: 200 to 500 nM

I would be grateful if you could share the reported EC50 for C=CCn1c(=O)c2cnc(Nc3ccc(OCC4CC4)cc3)nc2n1-c1cccc(OC2CCN(C)CC2)n1 . 200 to 500 nM

Entry C=CCn1c(=O)c2cnc(Nc3ccc(OCC4CC4)cc3)nc2n1-c1cccc(OC2CCNCC2)n1 : reported EC50 = ? 200 to 500 nM

Requested read-out: EC50. Entry: C=CCn1c(=O)c2cnc(Nc3cccc(C)c3)nc2n1-c1cccc(OC2CCNCC2)n1 200 to 500 nM

For the compound shown here, C=CCn1c(=O)c2cnc(Nc3ccc(OCCF)cc3)nc2n1-c1cccc(OC2CCNCC2)n1 , give the reported EC50. 200 to 500 nM

Which EC50 reading was recorded for the compound C=CCn1c(=O)c2cnc(Nc3cnn(C(C)C)c3)nc2n1-c1cccc(OC2CCN(C)CC2)n1 ? > 1000 nM

# input compound: C=CCn1c(=O)c2cnc(Nc3ccc(OC)nc3)nc2n1-c1cccc(OC2CCN(C)CC2)n1 ; wanted: its EC50 200 to 500 nM

What value of EC50 has been reported for the following compound? C=CCn1c(=O)c2cnc(Nc3ccc4nc(C)sc4c3)nc2n1-c1cccc(OC2CCN(C)CC2)n1 200 to 500 nM

Given the compound C=CCn1c(=O)c2cnc(Nc3ccc4c(cnn4C)c3)nc2n1-c1cccc(OC2CCNCC2)n1 , what is its reported EC50? 200 to 500 nM

Could you tell me which EC50 is on file for C=CCn1c(=O)c2cnc(Nc3ccc4c(c3)OCO4)nc2n1-c1cccc(NC2CCN(C)CC2)n1 ? > 1000 nM

What EC50 value was documented for this compound, C=CCn1c(=O)c2cnc(Nc3ccc(OCCF)cc3)nc2n1-c1cccc(OC2CCN(C)CC2)n1 ? < 200 nM

---

Molecular target: Wee1A kinase (CDK1 Tyr15 phosphorylation in ACHN renal cell carcinoma cells) (Homo sapiens, UniProt P30291)
Construct: pCDK1 Tyr15 immunofluorescence read-out
Sequence (P30291 whole entry): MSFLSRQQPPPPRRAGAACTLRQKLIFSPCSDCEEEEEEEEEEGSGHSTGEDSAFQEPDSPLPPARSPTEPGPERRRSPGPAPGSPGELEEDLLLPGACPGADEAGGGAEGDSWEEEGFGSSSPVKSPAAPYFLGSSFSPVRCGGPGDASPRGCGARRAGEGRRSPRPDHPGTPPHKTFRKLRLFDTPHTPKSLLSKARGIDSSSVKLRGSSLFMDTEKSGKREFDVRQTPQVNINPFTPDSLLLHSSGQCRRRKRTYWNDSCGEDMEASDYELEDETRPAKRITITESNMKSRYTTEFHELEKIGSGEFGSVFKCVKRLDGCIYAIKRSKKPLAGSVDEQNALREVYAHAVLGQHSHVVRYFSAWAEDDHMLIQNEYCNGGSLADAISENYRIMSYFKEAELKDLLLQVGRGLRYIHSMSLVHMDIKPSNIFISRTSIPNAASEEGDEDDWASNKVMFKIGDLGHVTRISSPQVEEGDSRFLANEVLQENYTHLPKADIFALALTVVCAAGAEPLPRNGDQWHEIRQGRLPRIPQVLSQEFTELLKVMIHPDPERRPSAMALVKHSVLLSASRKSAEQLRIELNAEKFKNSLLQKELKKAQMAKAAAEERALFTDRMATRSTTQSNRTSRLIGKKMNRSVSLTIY
Assay: High-content imaging of pCdk1 Y15, Wee1A kinase target engagement in ACHN cells
Format: cell-based
Settings: 4 h treatment, nuclear positivity for pCdk1 Y15 vs DMSO control, read-out: CDK1 Tyr15 Phosphorylation EC50
Description: Each of an ACHN renal cell carcinoma cell line (ATCC) and a DAOY medulloblastoma cell line, and an A427 lung cancer line were cultured in Minimum Essential Medium Eagle supplemented with 10% fetal calf serum (Sigma), 1% Penicillin-Streptomycin and 10 mM HEPES buffer (HyClone). […] For target engagement assessment of Wee1A kinase inhibition, high-content imaging of ACHN renal cell carcinoma cells was used for quantification of CDK1 phosphorylated on tyrosine 15 by immunofluorescence (“IF”). […]
pEC50: −log10 of the molar value.
ASSAY_METRIC: pEC50

C=CCn1c(=O)c2cnc(Nc3ccc4c(cnn4C)c3)nc2n1-c1cccc(NC2CCN(C)CC2)n1 :: > 7.00
C=CCn1c(=O)c2cnc(Nc3ccc4c(cnn4C)c3)nc2n1-c1cccc(N[C@H]2CCNC2)n1 :: < 6.00
C=CCn1c(=O)c2cnc(Nc3ccc(OCCF)cc3)nc2n1-c1cccc(OC2CCNCC2)n1 :: > 7.00
C=CCn1c(=O)c2cnc(Nc3ccc4sncc4c3)nc2n1-c1cccc(OC2CCNCC2)n1 :: 6.30 to 7.00

Dear colleague, I am looking for the recorded pEC50 of the following molecule: C=CCn1c(=O)c2cnc(Nc3ccc(OCC(F)(F)F)c(C)c3)nc2n1-c1cccc(NC2CCNCC2)n1 6.30 to 7.00

Recorded pEC50 of C=CCn1c(=O)c2cnc(Nc3ccc4c(cnn4C)c3)nc2n1-c1cccc(OC2CCN(C)CC2)c1 , please. > 7.00

pEC50 lookup needed for C=CCn1c(=O)c2cnc(Nc3ccc4[nH]nc(C)c4c3)nc2n1-c1cccc(OC2CCN(C)CC2)n1 , thanks. > 7.00

Item under review: C=CCn1c(=O)c2cnc(Nc3ccc4cnoc4c3)nc2n1-c1cccc(OC2CCN(C)CC2)n1 . Reported pEC50? 6.00 to 6.30

Given Cn1c(=O)c2cnc(Nc3ccc(Cl)cc3)nc2n1-c1cccc(OC2CCNCC2)n1 , state its recorded pEC50. 6.00 to 6.30

Returns the measured pEC50 for the input molecule. Input: C=CCn1c(=O)c2cnc(Nc3ccc4c(cnn4CC(C)C)c3)nc2n1-c1cccc(OC2CCNCC2)n1 > 7.00

# query: pEC50 of entry C=CCn1c(=O)c2cnc(Nc3cc(C)cc(F)c3)nc2n1-c1cccc(NC2CCNCC2)n1 6.30 to 7.00

Could you share which pEC50 value was measured for CCn1c(=O)c2cnc(Nc3ccc4c(ccn4C)c3)nc2n1-c1cccc(OC2CCNCC2)n1 ? > 7.00

// query pEC50 value for entry C=CCn1c(=O)c2cnc(Nc3cncc(F)c3)nc2n1-c1cccc(OC2CCNCC2)n1 6.00 to 6.30

---

IC50 by entry:
Target: Myt1 kinase (recombinant PMYT-1) (Homo sapiens)
Construct: full length PMYT-1 was expressed by baculovirus in insect cells; purchased Invitrogen A30984; host or cells: insect cells (baculovirus)
Assay: Myt1 kinase binding assay (LanthaScreen Eu Kinase Binding Assay)
Conditions: 3 nM tracer 178, 2.5 nM PMYT-1, 1 nM Eu-labeled antibody; read-out: Myt1 kinase Binding IC50

Take a look at these entries with their results.
C=CCn1c(=O)c2cnc(Nc3ccc4c(cnn4C)c3)nc2n1-c1cccc(O[C@@H]2CCN[C@@H](C)C2)n1 (relative stereo) :: 20 to 100 nM
C=CCn1c(=O)c2cnc(Nc3ccc4occc4c3)nc2n1-c1cccc(OC2CCN(C)CC2)n1 :: < 20 nM
C=CCn1c(=O)c2cnc(Nc3cncc(OC)c3)nc2n1-c1cccc(OC2CCN(C)CC2)n1 :: 20 to 100 nM

Now consider the entry below.
What IC50 appears in the records for this compound with Myt1 kinase (recombinant PMYT-1) (Homo sapiens)? C=CCn1c(=O)c2cnc(Nc3ccc(N4CCSCC4)cc3)nc2n1-c1cccc(OC2CCN(C)CC2)n1 < 20 nM

---

Target: recombinant human Wee1A kinase (Homo sapiens)
Construct: full length Wee1 kinase was expressed by baculovirus in insect cells; purchased Invitrogen PV3817; host or cells: insect cells (baculovirus)
Sequence (P30291 whole entry): as above
Experiment: Wee1A kinase binding assay (LanthaScreen Eu time-resolved FRET)
Details: 30 nM tracer 178, 5 nM Wee1A kinase, 2 nM Eu-labeled antibody; 60 minutes at room temperature; read-out: Wee1A kinase Binding IC50
ASSAY_METRIC: IC50

C=CCn1c(=O)c2cnc(Nc3ccc4c(cnn4C)c3)nc2n1-c1cccc(OC2CCNC(C)C2)n1 (stereo not shown) [Compound 404] :: < 10 nM
C=CCn1c(=O)c2cnc(Nc3ccc4cnoc4c3)nc2n1-c1cccc(OC2CCN(C)CC2)n1 [Compound 299] :: < 10 nM
C=CCn1c(=O)c2cnc(Nc3ccc4ncccc4c3)nc2n1-c1cccc(OC2CCNCC2)n1 [Compound 242] :: < 10 nM

Moving on to another molecule below.
Report IC50 for C=CCn1c(=O)c2cnc(Nc3ccc4c(cnn4C)c3)nc2n1-c1cccc(OC2CCCN(C)CC2)n1 (single isomer, unassigned) [Compound 373] please. < 10 nM
